Reported kon values for a set of binders
- testedTarget: T1, recombinant human ASM protein (human, UniProt P17405 47-630)
- T1 construct: Recombinant human ASM in solution; also called acid sphingomyelinase (ASM) protein
- T1 sequence: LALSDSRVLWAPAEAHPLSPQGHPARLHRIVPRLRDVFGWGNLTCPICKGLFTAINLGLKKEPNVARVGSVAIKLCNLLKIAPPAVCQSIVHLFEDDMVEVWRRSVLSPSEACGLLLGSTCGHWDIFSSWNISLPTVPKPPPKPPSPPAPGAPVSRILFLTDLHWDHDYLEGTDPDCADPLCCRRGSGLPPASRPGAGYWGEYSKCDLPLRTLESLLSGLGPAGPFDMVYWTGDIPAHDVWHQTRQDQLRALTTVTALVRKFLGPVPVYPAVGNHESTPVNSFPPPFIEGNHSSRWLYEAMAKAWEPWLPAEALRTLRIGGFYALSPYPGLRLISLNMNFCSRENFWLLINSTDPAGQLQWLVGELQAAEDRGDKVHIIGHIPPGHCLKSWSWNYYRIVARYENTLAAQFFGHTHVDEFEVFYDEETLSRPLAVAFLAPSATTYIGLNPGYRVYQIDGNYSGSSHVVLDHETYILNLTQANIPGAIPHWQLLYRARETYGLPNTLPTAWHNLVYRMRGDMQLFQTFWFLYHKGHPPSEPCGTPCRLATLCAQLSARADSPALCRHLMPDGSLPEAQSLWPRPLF
- experimentalProtocol: BLI (Octet), antibody on AHC sensor

# binder, kon
data = [
    ("#9104v-H26 (antibody, human IgG4 S228P, lambda, V domains shown, Full-length IgG, lambda) VH: EVQLLESGGGLVQPGGSLRLSCAASGFTFSNYYMSWVRQAPGKGLEWVSGTYYASGNAYYADSVKGRFTISRDNSKNTLYLQMNSLRAEDTAVYYCARDTPGFDYWGQGTLVTVSS VL: QSVLTQPPSASGTPGQRVTISCTGSSSNIGNNAVNWYQQLPGTAPKLLIYYDSHRPSGVPDRFSGSKSGTSASLAISGLRSEDEADYYCGAWDYSLSAYVFGGGTKLTVLG", "175000 M⁻¹ s⁻¹"),
    ("#9104v-H02 (antibody, human IgG4 S228P, lambda, V domains shown, Full-length IgG, lambda) VH: EVQLLESGGGLVQPGGSLRLSCAASGFTFSNYYMSWVRQAPGKGLEWVSGIYFGSGDIRYADSVKGRFTISRDNSKNTLYLQMNSLRAEDTAVYYCARDTPGFDYWGQGTLVTVSS VL: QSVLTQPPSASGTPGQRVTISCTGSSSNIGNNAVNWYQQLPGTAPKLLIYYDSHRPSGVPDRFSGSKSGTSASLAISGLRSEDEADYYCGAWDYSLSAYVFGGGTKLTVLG", "278000 M⁻¹ s⁻¹"),
    ("#9104v-H11 (antibody, human IgG4 S228P, lambda, V domains shown, Full-length IgG, lambda) VH: EVQLLESGGGLVQPGGSLRLSCAASGFTFSNYYMSWVRQAPGKGLEWVSGIYYGSGIPYYADSVKERFTISRDNSKNTLYLQMNSLRAEDTAVYYCARDTPGFDYWGQGTLVTVSS VL: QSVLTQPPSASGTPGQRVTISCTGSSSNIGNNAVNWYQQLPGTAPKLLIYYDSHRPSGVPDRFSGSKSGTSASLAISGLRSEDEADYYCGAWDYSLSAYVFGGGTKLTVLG", "250000 M⁻¹ s⁻¹"),
    ("#9104v-H19 (antibody, human IgG4 S228P, lambda, V domains shown, Full-length IgG, lambda) VH: EVQLLESGGGLVQPGGSLRLSCAASGFTFSNYYMSWVRQAPGKGLEWVSGIYYGSGVPYYADSVKGRFTISRDNSKNTLYLQMNSLRAEDTAVYYCARDTPGFDYWGQGTLVTVSS VL: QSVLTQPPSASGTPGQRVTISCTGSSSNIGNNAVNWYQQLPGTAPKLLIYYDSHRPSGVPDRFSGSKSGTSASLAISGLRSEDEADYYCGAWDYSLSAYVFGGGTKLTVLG", "266000 M⁻¹ s⁻¹"),
    ("#9104v-H31 (antibody, human IgG4 S228P, lambda, V domains shown, Full-length IgG, lambda) VH: EVQLLESGGGLVQPGGSLRLSCAASGFTFSNYYMSWVRQAPGKGLEWVSGVYYGSGTPYYADSVKGRFTISRDNSKNTLYLQMNSLRAEDTAVYYCARDTPGFDYWGQGTLVTVSS VL: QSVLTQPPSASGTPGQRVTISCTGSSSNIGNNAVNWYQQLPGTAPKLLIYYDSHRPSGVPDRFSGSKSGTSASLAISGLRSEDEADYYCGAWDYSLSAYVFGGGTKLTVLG", "266000 M⁻¹ s⁻¹"),
]
